Tested on: HIV-1NL4-3 K103N-Y181C
Experiment: Light assay with inhibitor-resistant HI reporter virus in MT4 7F2 cells
Assay type: cell-based
Settings: Human immunodeficiency virus 1, read-out: EC50(nM) MT4 7F2 cells HIV-1NL4-3 K103N-Y181C 2% FCS
Description: For the mixture for a 96-well MTP, 3 million MT4 7F2 cells are pelleted, suspended in 1 ml of RPMI 1640 medium without phenol red (Invitrogen, Karlsruhe, Germany)/10% FCS/10% AIM-V (Invitrogen, Karlsruhe, Germany) and incubated together with a suitable amount of the corresponding HIV-1NL4-3 reporter virus at 37° C. for 2 hours (pellet infection). […]
List of EC50 values.

- chemicalString: "N#Cc1cc(F)cc(-c2sc(C(=O)N3CNC(=O)C3)cc2-c2cccc(Cl)c2)c1"
  target: "HIV-1NL4-3 K103N-Y181C"
  recordedResult: "123 nM"
- chemicalString: "N#Cc1cc(-c2cc(C(=O)N3CNC(=O)C3)sc2-c2cccc(Cl)c2)ccc1F"
  target: "HIV-1NL4-3 K103N-Y181C"
  recordedResult: "121 nM"
- chemicalString: "O=C1CN(C(=O)c2cc(-c3ccc(F)c(Cl)c3)c(-c3cc(F)cc(Cl)c3)s2)CN1"
  target: "HIV-1NL4-3 K103N-Y181C"
  recordedResult: "176 nM"
- chemicalString: "N#Cc1cc(F)cc(-c2sc(C(=O)N3CNC(=O)C3)cc2-c2ccc(F)c(Cl)c2)c1"
  target: "HIV-1NL4-3 K103N-Y181C"
  recordedResult: "40 nM"
- chemicalString: "N#Cc1cccc(-c2cc(C(=O)N3CNC(=O)C3)sc2-c2cc(F)cc(Cl)c2)c1"
  target: "HIV-1NL4-3 K103N-Y181C"
  recordedResult: "45 nM"
- chemicalString: "O=C1CN(C(=O)c2cc(-c3cccc(Cl)c3)c(-c3cccc(OC(F)(F)F)c3)s2)CN1"
  target: "HIV-1NL4-3 K103N-Y181C"
  recordedResult: "150 nM"

# ---- query compound ----
May I ask what EC50 has been recorded for N#Cc1cccc(-c2cc(C(=O)N3CNC(=O)C3)sc2-c2cccc(Cl)c2)c1 ?
100 nM

====

Test system: HIV-1NL4-3 K103N-Y181C
Experiment: Light assay with inhibitor-resistant HI reporter virus in MT4 7F2 cells
Type: cell-based
Conditions: Human immunodeficiency virus 1, read-out: EC50(nM) MT4 7F2 cells HIV-1NL4-3 K103N-Y181C 2% FCS
measure: EC50 (nM)
Give just the number in nM; leave the unit off.

Below, 3 compounds whose answers are already recorded.
- chemicalString: "N#Cc1cc(-c2cc(C(=O)N3CNC(=O)C3)sc2-c2cc(F)cc(Cl)c2)ccc1F"
  measurementUnits: "nM"
  recordedResult: 44
- chemicalString: "O=C1CN(C(=O)c2cc(-c3ccc(F)c(Cl)c3)c(-c3cccc(Cl)c3)s2)CN1"
  measurementUnits: "nM"
  recordedResult: 260
- chemicalString: "N#Cc1cc(-c2sc(C(=O)N3CNC(=O)C3)cc2-c2cccc(Cl)c2)ccc1F"
  measurementUnits: "nM"
  recordedResult: 348

# ---- query compound ----
May I ask what EC50 has been recorded for O=C1CN(C(=O)c2cc(-c3cccc(Cl)c3)c(-c3cc(F)cc(Cl)c3)s2)CN1 ?
258
